Quick reference: MIC of the listed items.
System: STAPHYLOCOCCUS AUREUS CMX 553
Assay overview: In vitro antibacterial activity, MIC, BHI agar dilution
Assay type: cell-based
Recorded conditions: S. aureus CMX 553, unit assumed
Measured attribute: MIC (µg/mL)

[[record]]
compound = "CC[C@H]1OC(=O)[C@H](C)C(=O)[C@H](C)[C@@H](O[C@@H]2O[C@H](C)C[C@H](N(C)C)[C@H]2O)[C@](C)(OC)C[C@@H](C)C2=NC[C@H](CO)N3C(=O)O[C@@]1(C)[C@H]3[C@H]2C [Example 63]"
measurement_target = "STAPHYLOCOCCUS AUREUS CMX 553"
readout_value = 1.56

[[record]]
compound = "CC[C@H]1OC(=O)[C@H](C)[C@@H](O[C@H]2C[C@@](C)(OC)[C@@H](O)[C@H](C)O2)[C@H](C)[C@@H](O[C@@H]2O[C@H](C)C[C@H](N(C)C)[C@H]2O)[C@@H](C)C[C@@H](C)C2=NCCN3C(=O)O[C@@]1(C)[C@H]3[C@H]2C [Example 14]"
measurement_target = "STAPHYLOCOCCUS AUREUS CMX 553"
readout_value = 0.1

[[record]]
compound = "CC[C@H]1OC(=O)[C@H](C)C(=O)[C@H](C)[C@@H](O[C@@H]2O[C@H](C)C[C@H](N(C)C)[C@H]2O)[C@](C)(OC)C[C@@H](C)C2=NC3CN(S(=O)(=O)Cc4ccccc4[N+](=O)[O-])CC3N3C(=O)O[C@@]1(C)[C@H]3[C@H]2C (some centres unmarked) [Example 123]"
measurement_target = "STAPHYLOCOCCUS AUREUS CMX 553"
readout_value = 3.1

[[record]]
compound = "CC[C@H]1OC(=O)[C@H](C)C(=O)[C@H](C)[C@@H](O[C@@H]2O[C@H](C)C[C@H](N(C)C)[C@H]2O)[C@](C)(OC)C[C@@H](C)C2=N[C@H](CN3CCOCC3)CN3C(=O)O[C@@]1(C)[C@H]3[C@H]2C [Example 95]"
measurement_target = "STAPHYLOCOCCUS AUREUS CMX 553"
readout_value = 0.39

[[record]]
compound = "CC[C@H]1OC(=O)[C@H](C)C(=O)[C@H](C)[C@@H](O[C@@H]2O[C@H](C)C[C@H](N(C)C)[C@H]2O)[C@](C)(OC)C[C@@H](C)C2=NC3CN(CCc4ccccc4[N+](=O)[O-])CC3N3C(=O)O[C@@]1(C)[C@H]3[C@H]2C (some centres unmarked) [Example 119]"
measurement_target = "STAPHYLOCOCCUS AUREUS CMX 553"
readout_value = 0.2

[[record]]
compound = "CC[C@H]1OC(=O)[C@H](C)C(=O)[C@H](C)[C@@H](O[C@@H]2O[C@H](C)C[C@H](N(C)C)[C@H]2O)[C@](C)(OC)C[C@@H](C)C2=NC3CN(CC(OC)OC)CC3N3C(=O)O[C@@]1(C)[C@H]3[C@H]2C (some centres unmarked) [Example 127]"
measurement_target = "STAPHYLOCOCCUS AUREUS CMX 553"
readout_value = 1.56

[[record]]
compound = "CC[C@H]1OC(=O)[C@H](C)C(=O)[C@H](C)[C@@H](O[C@@H]2O[C@H](C)C[C@H](N(C)C)[C@H]2O)[C@](C)(OC)C[C@@H](C)C2=N[C@H](COCc3ccccc3Cl)CN3C(=O)O[C@@]1(C)[C@H]3[C@H]2C [Example 78]"
measurement_target = "STAPHYLOCOCCUS AUREUS CMX 553"
readout_value = 0.78

[[record]]
compound = "CC[C@H]1OC(=O)[C@H](C)C(=O)[C@H](C)[C@@H](O[C@@H]2O[C@H](C)C[C@H](N(C)C)[C@H]2O)[C@](C)(OC)C[C@@H](C)C2=N[C@@H](COCc3ccncc3)CN3C(=O)O[C@@]1(C)[C@H]3[C@H]2C [Example 86]"
measurement_target = "STAPHYLOCOCCUS AUREUS CMX 553"
readout_value = 0.39


###

Let's look at some molecules and their measured MIC.
Test system: ESCHERICHIA COLI H560
Assay overview: In vitro antibacterial activity, MIC, BHI agar dilution
Format: cell-based
Recorded conditions: E. coli H560, unit assumed
Measured attribute: MIC (µg/mL)

[[record]]
molecule = "CC[C@H]1OC(=O)[C@H](C)C(=O)[C@H](C)[C@@H](O[C@@H]2O[C@H](C)C[C@H](N(C)C)[C@H]2O)[C@](C)(OC)C[C@@H](C)C2=N[C@H](CN(C)Cc3ccccc3)CN3C(=O)O[C@@]1(C)[C@H]3[C@H]2C"
readout_value = 50

[[record]]
molecule = "CC[C@H]1OC(=O)[C@H](C)C(=O)[C@H](C)[C@@H](O[C@@H]2O[C@H](C)C[C@H](N(C)C)[C@H]2O)[C@](C)(OC)C[C@@H](C)C2=NC[C@H](COCc3ccccc3)N3C(=O)O[C@@]1(C)[C@H]3[C@H]2C"
readout_value = 1.56

[[record]]
molecule = "CC[C@H]1OC(=O)[C@H](C)C(=O)[C@H](C)[C@@H](O[C@@H]2O[C@H](C)C[C@H](N(C)C)[C@H]2O)[C@](C)(OC)C[C@@H](C)C2=N[C@H](COCc3ccc(OC)cc3)CN3C(=O)O[C@@]1(C)[C@H]3[C@H]2C"
readout_value = 50

[[record]]
molecule = "CC[C@H]1OC(=O)[C@H](C)C(=O)[C@H](C)[C@@H](O[C@@H]2O[C@H](C)C[C@H](N(C)C)[C@H]2O)[C@](C)(OC)C[C@@H](C)C2=NCC(COC(=O)c3cccc4[nH]ccc34)N3C(=O)O[C@@]1(C)[C@H]3[C@H]2C (stereo partly shown)"
readout_value = 50


###

# maps each entry to its log10 MIC
Tested on: STAPHYLOCOCCUS EPIDERMIDIS 3519
Type: cell-based
Recorded conditions: S. epidermidis 3519; BHI agar; unit assumed
Measured attribute: log10 MIC (log10 of the value in µg/mL)

[[record]]
molecule = "CC[C@H]1OC(=O)[C@H](C)C(=O)[C@H](C)[C@@H](O[C@@H]2O[C@H](C)C[C@H](N(C)C)[C@H]2O)[C@](C)(OC)C[C@@H](C)C2=N[C@H](CO)CN3C(=O)O[C@@]1(C)[C@H]3[C@H]2C [Example 52]"
measurement_target = "STAPHYLOCOCCUS EPIDERMIDIS 3519"
measured_attribute = "log10 MIC"
readout_value = -0.11

[[record]]
molecule = "CC[C@H]1OC(=O)[C@H](C)C(=O)[C@H](C)[C@@H](O[C@@H]2O[C@H](C)C[C@H](N(C)C)[C@H]2O)[C@](C)(OC)C[C@@H](C)C2=NC[C@H](CCCc3ccccc3)N3C(=O)O[C@@]1(C)[C@H]3[C@H]2C [Example 40]"
measurement_target = "STAPHYLOCOCCUS EPIDERMIDIS 3519"
measured_attribute = "log10 MIC"
readout_value = -0.41

[[record]]
molecule = "CC[C@H]1OC(=O)[C@H](C)C(=O)[C@H](C)[C@@H](O[C@@H]2O[C@H](C)C[C@H](N(C)C)[C@H]2O)[C@](C)(OC)C[C@@H](C)C2=N[C@@H]3CCC[C@@H]3N3C(=O)O[C@@]1(C)[C@H]3[C@H]2C [Example 17]"
measurement_target = "STAPHYLOCOCCUS EPIDERMIDIS 3519"
measured_attribute = "log10 MIC"
readout_value = -0.11

[[record]]
molecule = "CC[C@H]1OC(=O)[C@H](C)C(=O)[C@H](C)[C@@H](O[C@@H]2O[C@H](C)C[C@H](N(C)C)[C@H]2O)[C@](C)(OC)C[C@@H](C)C2=NC3CN(C(C)c4ccccc4)CC3N3C(=O)O[C@@]1(C)[C@H]3[C@H]2C (some centres unmarked) [Example 113]"
measurement_target = "STAPHYLOCOCCUS EPIDERMIDIS 3519"
measured_attribute = "log10 MIC"
readout_value = 0.19

[[record]]
molecule = "CC[C@H]1OC(=O)[C@H](C)C(=O)[C@H](C)[C@@H](O[C@@H]2O[C@H](C)C[C@H](N(C)C)[C@H]2O)[C@](C)(OC)C[C@@H](C)C2=NC[C@H](CSCc3ccccc3)N3C(=O)O[C@@]1(C)[C@H]3[C@H]2C [Example 66]"
measurement_target = "STAPHYLOCOCCUS EPIDERMIDIS 3519"
measured_attribute = "log10 MIC"
readout_value = -0.70

[[record]]
molecule = "CC[C@H]1OC(=O)[C@H](C)C(=O)[C@H](C)[C@@H](O[C@@H]2O[C@H](C)C[C@H](N(C)C)[C@H]2O)[C@](C)(OC)C[C@@H](C)C2=N[C@H](COCc3ccc(Br)cc3)CN3C(=O)O[C@@]1(C)[C@H]3[C@H]2C [Example 103]"
measurement_target = "STAPHYLOCOCCUS EPIDERMIDIS 3519"
measured_attribute = "log10 MIC"
readout_value = -1.30

[[record]]
molecule = "CC[C@H]1OC(=O)[C@H](C)C(=O)[C@H](C)[C@@H](O[C@@H]2O[C@H](C)C[C@H](N(C)C)[C@H]2O)[C@](C)(OC)C[C@@H](C)C2=N[C@H](COCc3cccc(Br)c3)CN3C(=O)O[C@@]1(C)[C@H]3[C@H]2C [Example 105]"
measurement_target = "STAPHYLOCOCCUS EPIDERMIDIS 3519"
measured_attribute = "log10 MIC"
readout_value = -1.30

[[record]]
molecule = "CC[C@H]1OC(=O)[C@H](C)C(=O)[C@H](C)[C@@H](O[C@@H]2O[C@H](C)C[C@H](N(C)C)[C@H]2O)[C@](C)(OC)C[C@@H](C)C2=NC3CN(CC)CC3N3C(=O)O[C@@]1(C)[C@H]3[C@H]2C (some centres unmarked) [Example 115]"
measurement_target = "STAPHYLOCOCCUS EPIDERMIDIS 3519"
measured_attribute = "log10 MIC"
readout_value = 0.19

